Experiment: Cytometry Cell-Based qHTS for Inhibitors of the mTORC1 Signaling Pathway in MEF cells (AID 2668); note: potency is the fitted concentration of half-maximal effect
Settings: mTORC1 pathway readout; series mostly up to 38.3 µM
Inconclusive results are not listed. Activity calls are given as the source filed them. Calls come from the whole dose curve; as a rule, active = well fitted inhibition curve with a large enough effect; inconclusive = small, poorly fitted or top-dose-only effect; inactive = flat fitted curve, though single readings scatter.
parameter-measured: Potency

[[record]]
molecule = "COc1ccc2c(c1)/C(=C/c1cnc[nH]1)C(=O)N2"
reading = "6.56 µM (active)"

[[record]]
molecule = "C#CCN[C@H](C)Cc1ccccc1"
reading = "inactive"

[[record]]
molecule = "CO[C@H]1CC=C2CCN3CCC4=C(CC(=O)OC4)[C@]23C1"
reading = "inactive"

[[record]]
molecule = "N[C@@]1(C(=O)O)CC[C@@H](C(=O)O)C1"
reading = "inactive"

[[record]]
molecule = "CN(N=O)c1ccc(O)c(O)c1"
reading = "inactive"


Answer for every listed entry: what is its Potency? The entries follow.
1. COc1ccc2c(c1O)-c1cccc3c1[C@@H](C2)N(C)CC3
2. CCOC(=O)c1ncn2c1[C@@H]1CCCN1C(=O)c1cc(OC)ccc1-2

1: inactive; 2: inactive

----------
Experiment: qHTS for differential inhibitors of proliferation of Plasmodium falciparum line Dd2 (AID 1882); note: nearly all actives have a fitted effect of over 65% in size
Details: Plasmodium falciparum Dd2 proliferation inhibition; series mostly up to 28.7 µM
Records with an inconclusive call do not appear. Calls of active or inactive are those of the source. The call rests on the fitted dose curve; in most records, active means well fitted inhibition curve with a large enough effect; inconclusive means small, poorly fitted or top-dose-only effect; inactive means flat fitted curve, though single readings scatter.
Entry note: the call must match one of active, inactive

Use the examples below as a reference point.
[[record]]
compound = "C[N+](C)(C)CCOC(=O)CBr"
assigned_category = "inactive"

[[record]]
compound = "c1ccc2cc(CC3=NCCN3)ccc2c1"
assigned_category = "inactive"

[[record]]
compound = "COc1ccc2c(c1OC)C(=O)OC2C1c2cc3c(cc2CCN1C)OCO3 (configuration not stated)"
assigned_category = "inactive"

[[record]]
compound = "CNc1ccc2oc(C[C@H]3O[C@@]4(CC[C@H]3C)O[C@H]([C@H](C)C(=O)c3ccc[nH]3)[C@H](C)C[C@H]4C)nc2c1C(=O)O"
assigned_category = "active"

[[record]]
compound = "CC(N)[C@H](O)c1ccc(O)c(O)c1 (some centres not stated)"
assigned_category = "inactive"

[[record]]
compound = "C=CCN1C[C@@H](C)N([C@H](c2ccc(C(=O)N(CC)CC)cc2)c2cccc(OC)c2)C[C@@H]1C"
assigned_category = "active"

[[record]]
compound = "C[C@H](Cc1ccc2c(c1)OC(C(=O)O)(C(=O)O)O2)NC[C@H](O)c1cccc(Cl)c1"
assigned_category = "inactive"

[[record]]
compound = "Clc1cc(I)cc(Cl)c1NC1=NCCN1"
assigned_category = "inactive"


Entry Cc1o[nH]c(=O)c1CC(N)C(=O)O (configuration not stated) : call = ?
inactive

Tell me the recorded outcome of this test for `C[N+](C)(C)CC#CCN1CCCC1=O` .
inactive

Test call, this compound: NC(Cc1cc(O)c(O)cc1O)C(=O)O (configuration not stated)
inactive

Returns: the outcome recorded for `NNC(N)=O` in this assay.
inactive

----------
Test system: HACAT
Assay: qHTS assay to identify novel small-molecules to repurpose for Merkel cell carcinoma treatment (AID 1296009); note: nearly all actives have a fitted effect of over 60% in size
Conditions: MCC and control cell lines, CellTiter-Glo viability, 72 h; at 44.8 µM (top of the series) unless noted
Inconclusive results are not listed. The source made the active and inactive calls. The call rests on the fitted dose curve; in most records, active means well fitted inhibition curve with a large enough effect; inconclusive means small, poorly fitted or top-dose-only effect; inactive means flat fitted curve, though single readings scatter.
parameter-measured: outcome

[[record]]
molecule = "OCCCCC#Cc1cncc(OC[C@@H]2CCN2)c1"
parameter_measured = "outcome"
reading = "inactive"

[[record]]
molecule = "C/C=C(\\C)C(=O)OC1CC2C(C)(C)OC(=O)CC(OC(C)=O)C2(C)C2CC(OC(=O)C(C)C)C3(C)C(c4ccoc4)CC4OC43C12C (stereo not given)"
parameter_measured = "outcome"
reading = "inactive [at 17.4 µM]"

[[record]]
molecule = "CN(C)CCc1c[nH]c2ccc(CN3CCN(C)S3(=O)=O)cc12"
parameter_measured = "outcome"
reading = "inactive"

[[record]]
molecule = "COC(=O)[C@@]12C(=O)C(C)C(=O)[C@]1(C)C(C)=C[C@H]1[C@]3(C=O)CC[C@H](OC(C)=O)C(C)(C)[C@H]3CC[C@@]12C (stereo not given in full)"
parameter_measured = "outcome"
reading = "inactive [at 17.4 µM]"


Sourced from PubChem BioAssay (NCATS)
